Target Or System: SOCS2-EloBC (Homo sapiens, UniProt O14508+Q15369+Q15370)
Construct: Recombinant human SOCS2 (amino acids 32–198); His6 (cleaved yes)
Sequence (O14508 32-198): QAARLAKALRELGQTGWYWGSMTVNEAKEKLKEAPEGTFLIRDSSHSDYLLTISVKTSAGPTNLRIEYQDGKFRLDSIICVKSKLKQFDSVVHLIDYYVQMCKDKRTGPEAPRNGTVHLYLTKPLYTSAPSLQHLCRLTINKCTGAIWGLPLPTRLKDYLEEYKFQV
Sequence (Q15369 17-112 partner limits assumed): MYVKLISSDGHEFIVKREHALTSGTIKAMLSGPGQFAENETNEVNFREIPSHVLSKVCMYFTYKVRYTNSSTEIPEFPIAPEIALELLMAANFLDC
Sequence (Q15370 whole entry partner, the tested form may be a part): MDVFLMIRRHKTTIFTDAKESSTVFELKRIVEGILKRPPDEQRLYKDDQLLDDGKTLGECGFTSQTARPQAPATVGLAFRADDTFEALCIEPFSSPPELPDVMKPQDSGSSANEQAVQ
Method: ITC of GHR peptides and phosphotyrosine into SOCS2-EloBC
Measurement Conditions: 298 K, 350 μM peptide or 2 mM Tyr(P) into 30 μM SOCS2-EloBC, 50 mM HEPES, pH 7.5, 250 mM NaCl, 0.5 mM TCEP, one-set-of-site model
Readout Label: pKd
// scale note: pKd = -log10(conc_M); give the bare number

Ask | Tell me pKd reported for "N[C@@H](Cc1ccc(OP(=O)(O)O)cc1)C(=O)O"
Reply | 3.72
